Entry source: patent US10954228B2

# System: MiaPaCa2 cells
# protocol.details: cell-based HT lactate assay by colorimetric/fluorometric detection (cellular inhibition of lactate production)
# recorded.conditions: Homo sapiens, MIA PaCa-2, assay of Example 6
Recorded IC50 for the following compounds

Please review the entries below; each comes with its answer.
smiles.record | IC50
Cc1ccc(C#Cc2cccc(-c3nn(-c4nc(C(=O)O)cs4)c(CC4CC4)c3Cc3ccc(S(N)(=O)=O)c(F)c3)c2)o1 | < 1000 nM
NS(=O)(=O)c1ccc(Cc2c(-c3ccc(F)c(-c4ccc(C(F)(F)F)cc4)c3)nn(-c3nc(C(=O)O)cs3)c2CC2CC2)cc1F | < 1000 nM

The record that follows has no IC50 shown yet.
Exam item: What measured IC50 goes with Cc1ccc(C#Cc2cc(-c3nn(-c4nc(C(=O)O)cs4)c(CCC4CC4)c3Cc3ccc(S(N)(=O)=O)c(F)c3)ccc2F)s1 ?
Marked response: < 1000 nM
